FYI, the data here is from paper PMC10786891.

Here the recorded pKd is given for each entry.
# tgt: T1, EsCas13d, nuclease-dead (Eubacterium siraeum, UniProt B0MS50, R295A;H300A;R849A;H854A)
# T1 sequence: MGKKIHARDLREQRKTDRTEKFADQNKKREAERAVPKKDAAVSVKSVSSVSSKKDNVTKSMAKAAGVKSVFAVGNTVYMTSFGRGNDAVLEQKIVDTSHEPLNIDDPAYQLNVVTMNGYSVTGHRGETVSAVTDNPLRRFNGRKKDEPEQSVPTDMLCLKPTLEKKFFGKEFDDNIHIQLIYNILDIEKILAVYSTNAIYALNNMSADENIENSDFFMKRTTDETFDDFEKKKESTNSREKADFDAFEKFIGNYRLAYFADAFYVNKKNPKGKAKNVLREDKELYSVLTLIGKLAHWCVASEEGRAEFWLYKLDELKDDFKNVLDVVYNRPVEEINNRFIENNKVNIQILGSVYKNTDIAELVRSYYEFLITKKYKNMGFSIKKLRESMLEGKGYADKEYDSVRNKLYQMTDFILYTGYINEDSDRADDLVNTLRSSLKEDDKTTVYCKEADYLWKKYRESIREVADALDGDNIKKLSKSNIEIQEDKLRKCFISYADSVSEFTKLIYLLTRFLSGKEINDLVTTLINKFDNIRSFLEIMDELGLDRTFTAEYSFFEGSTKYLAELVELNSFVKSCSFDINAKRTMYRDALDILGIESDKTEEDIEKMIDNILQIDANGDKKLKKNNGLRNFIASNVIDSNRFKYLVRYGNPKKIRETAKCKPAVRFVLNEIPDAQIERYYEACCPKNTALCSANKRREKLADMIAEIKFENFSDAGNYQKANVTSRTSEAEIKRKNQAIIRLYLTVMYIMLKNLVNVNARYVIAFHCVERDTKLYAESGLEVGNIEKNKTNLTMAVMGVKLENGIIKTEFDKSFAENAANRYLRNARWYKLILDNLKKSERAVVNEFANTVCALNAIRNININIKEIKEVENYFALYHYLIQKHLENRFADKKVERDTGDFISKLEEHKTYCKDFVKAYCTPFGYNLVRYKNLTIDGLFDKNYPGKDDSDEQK
# assay: crRNA (strand 1, pre-loaded); Mg2+; 40 mM Tris-HCl pH 7.5, 150 mM NaCl, 6 mM MgCl2, 1 mM DTT, 0.1% Tween-20, 0.2 mg/ml BSA; 25 C; 10 min per concentration, then washed
# test settings: tags: His6-TwinStrep-SUMO cleaved; N-terminal SNAP kept (SNAP-Surface 488); label: 3' end held by stalled T7 RNA polymerase
pKd: −log10 of the molar value.

binder	pKd
target 1 U3G,U8A (mixed) RNA 1: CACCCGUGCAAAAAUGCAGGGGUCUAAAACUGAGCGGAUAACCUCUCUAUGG RNA 2: GGGAAUGGAUCCACAUCUACGAAUUCGUACCAUAGAGAGGUUAACCGCGCACCGAGAUCGGAAGAGCACACGU	7.92
target 3 insC 3' of 5,insC 3' of 5 (mixed) RNA 1: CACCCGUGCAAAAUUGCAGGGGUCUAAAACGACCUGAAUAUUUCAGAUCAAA RNA 2: GGGAAUGGAUCCACAUCUACGAAUUCGUUUUUGAUCUGAAAUAUUCACCGGUCUGCAGAUCGGAAGAGCACACGU	7.96
target 1 insG 3' of 16,insG 3' of 4 (mixed) RNA 1: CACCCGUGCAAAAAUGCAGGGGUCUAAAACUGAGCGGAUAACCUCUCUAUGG RNA 2: GGGAAUGGAUCCACAUCUACGAAUUCGUACCAUAGAGGAGGUUAUCCGCGUCACCGAGAUCGGAAGAGCACACGU	7.86
target 1 insA 3' of 21,insG 3' of 18 (mixed) RNA 1: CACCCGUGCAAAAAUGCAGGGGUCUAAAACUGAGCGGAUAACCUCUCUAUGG RNA 2: GGGAAUGGAUCCACAUCUACGAAUUCGUACCAAUAGGAGAGGUUAUCCGCUCACCGAGAUCGGAAGAGCACACGU	7.11
target 1 insG 3' of 7 (mixed) RNA 1: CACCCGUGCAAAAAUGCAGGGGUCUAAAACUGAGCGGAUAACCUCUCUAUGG RNA 2: GGGAAUGGAUCCACAUCUACGAAUUCGUACCAUAGAGAGGUUAUCGCGCUCACCGAGAUCGGAAGAGCACACGU	8.26
target 3 insC 3' of 4 (mixed) RNA 1: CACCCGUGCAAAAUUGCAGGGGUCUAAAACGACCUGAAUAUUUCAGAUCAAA RNA 2: GGGAAUGGAUCCACAUCUACGAAUUCGUUUUUGAUCUGAAAUAUUCAGCGUCUGCAGAUCGGAAGAGCACACGU	7.72
